System: Streptococcus pneumoniae KTCT 5412

{"COMPOUND": "Oc1cc(Cl)ccc1Oc1ccc(Cl)cc1Cl [Triclosan, reference compound]", "MEASURED ON": "Streptococcus pneumoniae KTCT 5412", "RESULT UNIT": "µg/mL", "MIC": 64}
{"COMPOUND": "O=C(O)c1cn(C2CC2)c2cc(N3CCNCC3)c(F)cc2c1=O [Ciprofloxacin, reference compound]", "MEASURED ON": "Streptococcus pneumoniae KTCT 5412", "RESULT UNIT": "µg/mL", "MIC": 0.5}
{"COMPOUND": "COC(C(N)=O)C(NC(=O)c1ccc(NC(=O)c2ccc([N+](=O)[O-])cc2)cc1)C(=O)Nc1ccc(C(=O)Nc2ccc(C(=O)Nc3ccc(C(=O)O)c(O)c3OC(C)C)c(O)c2OC(C)C)cc1 (stereo not shown)", "MEASURED ON": "Streptococcus pneumoniae KTCT 5412", "RESULT UNIT": "µg/mL", "MIC": 0.25}
{"COMPOUND": "COC(C(N)=O)C(NC(=O)c1ccc(NC(=O)c2ccc([N+](=O)[O-])cc2)cc1)C(=O)Nc1ccc(C(=O)Nc2ccc(C(=O)Nc3ccc(C(=O)O)cc3OC(C)C)c(O)c2OC(C)C)cc1 (stereo not shown)", "MEASURED ON": "Streptococcus pneumoniae KTCT 5412", "RESULT UNIT": "µg/mL", "MIC": 2}
